Hey, just so you know, these numbers are from PubChem BioAssay.

Experiment: antimalarial activity against Dd2 strain (AID 2302);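 further: 0% = DMSO untreated growth and 100% = chloroquine plus artemisinin killed control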
Conditions: P. falciparum Dd2 in RBCs, LDH growth readout, 72 h; at 2 µM
Active and inactive are the calls of the source.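 How the source made its calls: active means growth inhibition above 50% at the single 2 µM test dose, taken to imply half-maximal potency below 2 µM; inactive means the rest.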
Hello, when you answer, please use one of the following outcomes: active, inactive

Some entries whose results are on file:
[ask] Entry O=S(=O)(c1ccc2cc[nH]c2c1)N1CCC[C@@H]1CCN1CCC(c2c[nH]c3cnccc23)CC1 : call = ?
[reply] inactive

[ask] Entry Cc1cc(F)ccc1[C@H]1CNCCN1C(=O)N(C)[C@@H](C)c1cc(C(F)(F)F)cc(C(F)(F)F)c1 : call = ?
[reply] active

[ask] Entry COC(=O)C(Cc1ccccc1)NC(=O)NC1CCN(c2ccnc(Nc3ccc(F)cc3)n2)C1 (configuration not stated) : call = ?
[reply] inactive

[ask] Entry CN1CCCC(CN2CCN(Cc3cccc(-c4ccc(-c5nc6ccccc6[nH]5)s4)c3)CC2)C1 (configuration not stated) : call = ?
[reply] active

[ask] Entry Cc1ccc(O)c(C(=O)c2cnc3c(c2)c(-c2ccc(F)cc2)c(C#N)c(=O)n3C)c1 : call = ?
[reply] active

[ask] Entry COc1ccc(CNCc2ccccc2)cc1-c1ccc(S(=O)(=O)NCCN2CCCC2)c(F)c1 : call = ?
[reply] inactive

Continuing:
[ask] Entry Cc1ccc(C(=O)Nc2cc(S(=O)(=O)N3CCCC3)ccc2OCC(F)(F)F)cc1 : call = ?
[reply] inactive

[ask] Entry O=C(c1ccc(-c2ccc(-c3nc4ccc(C(F)(F)F)cc4[nH]3)s2)cc1)N1CCCCC1CN1CCC(O)C1 (configuration not stated) : call = ?
[reply] active

[ask] Entry CCn1c(SCc2ccccc2)nc2c1c(=O)[nH]c(=O)n2C : call = ?
[reply] inactive

[ask] Entry CC(C)(C)c1ccc(CNC(=O)c2ccc(-c3nc4ccc(C(C)(C)C)cc4[nH]3)cc2)cc1 : call = ?
[reply] inactive

[ask] Entry COc1ccc2nccc(NC(=O)C3(O)CCC(NCc4ncc5c(c4Cl)OCCO5)CC3)c2n1 (configuration not stated) : call = ?
[reply] active

[ask] Entry OCCN1CCN(c2nc(Nc3cccc(F)c3)c3cnn(-c4ccccc4)c3n2)CC1 : call = ?
[reply] active

[ask] Entry CC(=O)N(C)C1CCN(Cc2cccc(-c3ccc(-c4nc5ccc(C(F)(F)F)cc5[nH]4)cc3)c2)C1 (configuration not stated) : call = ?
[reply] active

[ask] Entry CN1CCc2cc(NC(=O)c3cc4ccccc4s3)cc(-c3ccccc3)c2CC1 : call = ?
[reply] inactive

---

Assay: antimalarial activity against Dd2 strain (AID 2302);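 further: 0% = DMSO untreated growth and 100% = chloroquine plus artemisinin killed control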
Settings: P. falciparum Dd2 in RBCs, LDH growth readout, 72 h; at 2 µM; stronger effect = higher value
metricName: growth inhibition (%)
Write down the numeric answer in % and omit the unit.

Study these solved cases before continuing.
So, COc1cc2nc(N3CCC(CNC(=O)c4ccc(NC(=O)c5ccc(Cl)cc5)cc4)CC3)nc(N)c2cc1OC ? Its growth inhibition was 100

So, Cc1cccc2[nH]c(-c3ccc(-c4ccc(CNCC5CCCO5)cc4)cc3)nc12 (centres undefined) ? Its growth inhibition was 81

So, Cc1cc(N[C@@H](Cc2ccccc2)C(=O)NC2CCCC2)nc(Nc2ccccc2)n1 ? Its growth inhibition was 82

So, C1=CN(Cc2ccccc2)C=CC1=C1C=Nc2ccccc21 ? Its growth inhibition was 69

Continuing:
So, COc1ccc(-c2ncnc(C(F)(F)F)c2-c2ccc(Cl)cc2)c(O)c1 ? Its growth inhibition was 22

So, CCN1CCN(C(=O)NC(C(=O)N(C)Cc2ccc(-c3ccc(C(F)(F)F)cc3)cc2)c2cccs2)C(=O)C1=O (centres undefined) ? Its growth inhibition was 95

So, Cc1cccc2[nH]c(-c3ccc(-c4ccc(CN5CCN(CCN6CCOCC6)CC5)cc4)s3)nc12 ? Its growth inhibition was 99

So, CCN(CC)CCN(CCCc1ccc(-c2ccc(C(F)(F)F)cc2)cc1)C(=O)Cn1c(CCc2cccc(F)c2F)nc(=O)c2c1CCC2 ? Its growth inhibition was 27

So, C=C(C)Cn1cc(C2CCN(CCCCNC(=O)c3sc(-c4ccc(Cl)cc4Cl)nc3CO)CC2)c2ccccc21 ? Its growth inhibition was 19
